Some compounds, each annotated with its measured Mean release rate.
# protocol-description: Rate of release of pheromone components from lures in laboratory wind tunnel
# Type: physicochemical
# protocol-conditions: Interval 11 days, Vial; 27° C., 8 km/hr wind speed
# Protocol: Measurements were made of the rates of release of the components from lures maintained in a laboratory wind tunnel at 27° C. and 8 km/hr wind speed. Volatiles were collected onto Porapak Q under same conditions for approximately 2 hours and the collections were analysed by Gas Chromatography with a flame ionisation detector using a polar column. Release rates (ng/hr) and their ratios to the major component are shown.

{"columns": ["compound", "Mean release rate"],
 "data": [
  ["CCCCCCC(=O)CCC(C)OC(C)=O (racemic) [racemic 2-acetoxy-5-undecanone, 2-acetoxy-5-undecanone]", "81.8 ng/h"],
  ["CCCCCCCCCC(C)OC(C)=O (racemic) [2-undecyl acetate, 2-acetoxyundecane]", "31.7 ng/h"],
  ["CCCCCCCCCC(C)O (racemic)", "29.4 ng/h"],
  ["CCCCCCCCCC(C)=O", "39.6 ng/h"]
]}

---

# protocol-description: Rate of release of pheromone components from lures in laboratory wind tunnel
# Format: physicochemical
# protocol-conditions: Interval 25 days, Vial; major component = 100
Some compounds, each annotated with its measured Mean ratio (release rate to the major component).
readout-kind: Mean ratio (release rate to the major component)

{"columns": ["compound", "readout-value"],
 "data": [
  ["CCCCCCCCCC(C)O (racemic)", 25],
  ["CCCCCCC(=O)CCC(C)OC(C)=O (racemic) [racemic 2-acetoxy-5-undecanone, 2-acetoxy-5-undecanone]", 100],
  ["CCCCCCCCCC(C)OC(C)=O (racemic) [2-undecyl acetate, 2-acetoxyundecane]", 31],
  ["CCCCCCCCCC(C)=O", 31]
]}

---

# protocol-description: Rate of release of pheromone components from lures in laboratory wind tunnel
# Type: physicochemical
# protocol-conditions: Interval 3 days, Vial; major component = 100
readout-kind: Mean ratio (release rate to the major component)

{"columns": ["molecule", "readout-value"],
 "data": [
  ["CCCCCCCCCC(C)OC(C)=O (racemic) [2-undecyl acetate, 2-acetoxyundecane]", 64],
  ["CCCCCCC(=O)CCC(C)OC(C)=O (racemic) [racemic 2-acetoxy-5-undecanone, 2-acetoxy-5-undecanone]", 100],
  ["CCCCCCCCCC(C)=O [2-undecanone]", 111],
  ["CCCCCCCCCC(C)O (racemic) [2-undecanol]", 52]
]}

---

# protocol-description: Rate of release of pheromone components from lures in laboratory wind tunnel
# Type: physicochemical
# protocol-conditions: Interval 26 days, Septa; major component = 100
Some molecules, each annotated with its measured Mean ratio (release rate to the major component).
readout-kind: Mean ratio (release rate to the major component)

{"columns": ["molecule", "readout-value"],
 "data": [
  ["CCCCCCCCCC(C)OC(C)=O (racemic) [2-undecyl acetate, 2-acetoxyundecane]", 30],
  ["CCCCCCC(=O)CCC(C)OC(C)=O (racemic) [racemic 2-acetoxy-5-undecanone, 2-acetoxy-5-undecanone]", 100],
  ["CCCCCCCCCC(C)=O", 34],
  ["CCCCCCCCCC(C)O (racemic)", 25]
]}

---

# protocol-description: Rate of release of pheromone components from lures in laboratory wind tunnel
# Assay type: physicochemical
# protocol-conditions: Interval 11 days, Septa; major component = 100
readout-kind: Mean ratio (release rate to the major component)

{"columns": ["molecule", "readout-value"],
 "data": [
  ["CCCCCCC(=O)CCC(C)OC(C)=O (racemic) [racemic 2-acetoxy-5-undecanone, 2-acetoxy-5-undecanone]", 100],
  ["CCCCCCCCCC(C)=O", 42],
  ["CCCCCCCCCC(C)OC(C)=O (racemic) [2-undecyl acetate, 2-acetoxyundecane]", 43],
  ["CCCCCCCCCC(C)O (racemic)", 81]
]}

Origin of the recorded values: patent US8071117B2
